system: 186277-243-T-J2-PDC complex spheroid growth; experiment: Anticancer human tumor 186277-243-T-J2-PDC patient-derived colon adenocarcinoma cell line growth inhibition [AhR]; details: second compound 3.16 µM; first compound 0.316 µM; stronger effect = lower value;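 also: luminescent signal used as a stand-in for viable cell amount; spheroids exposed to compounds for seven days before the viability read; 100% = DMSO vehicle control wells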
Please provide measured viability, T/C for the entries that follow.
Provide the reading as a plain figure in %.

Give recorded viability, T/C. O=C(c1cc(Cc2n[nH]c(=O)c3ccccc23)ccc1F)N1CCN(C(=O)C2CC2)CC1 + Cc1ccccc1N=Nc1ccc(NC(=O)c2ccnn2C)c(C)c1 104

Give recorded viability, T/C. NS(=O)(=O)OCC1CC(n2ccc3c(NC4CCc5ccccc54)ncnc32)CC1O (stereo unspecified) + CC(CO)NC(=O)c1cc(-c2ccc(Cl)cc2)nn(-c2cnn(C)c2)c1=O 22.9

Give recorded viability, T/C. COc1cc(C2c3cc4c(cc3C(OC3OC5COC(C)OC5C(O)C3O)C3COC(=O)C23)OCO4)cc(OC)c1O (stereo unspecified) + Cc1ccccc1N=Nc1ccc(NC(=O)c2ccnn2C)c(C)c1 137

Give recorded viability, T/C. CC1(C)CCC(CN2CCN(c3ccc(C(=O)NS(=O)(=O)c4ccc(NCC5CCOCC5)c([N+](=O)[O-])c4)c(Oc4cnc5[nH]ccc5c4)c3)CC2)=C(c2ccc(Cl)cc2)C1 + Cc1cncc(-c2nc(NCCc3c[nH]c4ccccc34)c3ncn(C(C)C)c3n2)c1 105

Give recorded viability, T/C. COc1cc(Nc2ncc3c(n2)-c2ccc(Cl)cc2C(c2c(F)cccc2OC)=NC3)ccc1C(=O)O + CC(CO)NC(=O)c1cc(-c2ccc(Cl)cc2)nn(-c2cnn(C)c2)c1=O 20.7

Give recorded viability, T/C. COc1cccc2c1C(=O)c1c(O)c3c(c(O)c1C2=O)CC(O)(C(=O)CO)CC3OC1CC(N)C(O)C(C)O1 (stereo unspecified) + Cc1cncc(-c2nc(NCCc3c[nH]c4ccccc34)c3ncn(C(C)C)c3n2)c1 10.8
